# Test system: P. berghei-ANKA-GFP-LucCON liver stage parasites in HepG2-A16-CD81EGFP cells
# EXPERIMENTAL_DETAILS: P. berghei liver stage Pb-Luc assay, Method 1 (UCSD, 1536-well)
# Format: cell-based, Plasmodium berghei
# DETAILS: Plasmodium berghei, 48 h, nominal 1 uM (10 mM stock); […] for 15 mM, 1.2 uM for 12 mM, 2 uM for 20 mM stock; average of 2 wells, 1536-well plate; repeat 2; read-out: Pb-Luc signal, 1 uM, repeat 2
Exam item: assign True to entries whose activity at 1 µM is below 90% and False to entries at or above 90%. Note that a value of exactly 90% receives False.

# example entries with known answers
COMPOUND | MEASURED_ON | LABEL
CCCN1C(CC(C)C)=N[S+](=O)([O-])c2cc(NC(=O)c3cccs3)ccc21 | P. berghei-ANKA-GFP-LucCON liver stage parasites in HepG2-A16-CD81EGFP cells | True
COc1cc(C(=O)NC2CCCc3c2[nH]c2c(Cl)cccc32)cc(OC)c1OC (stereo not drawn) | P. berghei-ANKA-GFP-LucCON liver stage parasites in HepG2-A16-CD81EGFP cells | False
O=C(Nc1ccc2c(N3CCCC3)ncnc2c1)c1cccc(Br)c1 | P. berghei-ANKA-GFP-LucCON liver stage parasites in HepG2-A16-CD81EGFP cells | True
COc1cc2c(cc1Oc1cccc(N(C)C)c1)NC(=O)C21CCN(c2cnccn2)CC1 | P. berghei-ANKA-GFP-LucCON liver stage parasites in HepG2-A16-CD81EGFP cells | False
CCc1ccc(Oc2c(C(F)(F)F)oc3c(CN4CCN(CC)CC4)c(O)ccc3c2=O)cc1 | P. berghei-ANKA-GFP-LucCON liver stage parasites in HepG2-A16-CD81EGFP cells | True

We now examine a further compound.
activity at 1 µM under 90%? Item: CC1=C(C(=O)Nc2ccc(C)cc2C)C(c2ccc([N+](=O)[O-])cc2)n2ncc(C(=O)Nc3ccc(F)cc3)c2N1 (stereo not drawn)
False

---

# System: P. berghei-ANKA-GFP-LucCON liver stage parasites in HepG2-A16-CD81EGFP cells
# EXPERIMENTAL_DETAILS: P. berghei liver stage Pb-Luc assay, Method 1 (UCSD, 1536-well)
# Format: cell-based, Plasmodium berghei
# DETAILS: Plasmodium berghei, 48 h, 1 uM (compounds provided at 10 mM); average of 2 wells on a 1536 well plate; column 11; read-out: Pb-Luc (P. berghei liver stage), % of control, lower concentration, first repeat
QUANTITY_MEASURED: activity at 1 µM (%)
Numbers only here, please. The scale is %.

COMPOUND | READOUT_VALUE
Cc1ccc(/C=N/Nc2cc(C)nc(NCc3ccccc3)n2)cc1 | 97

activity at 1 µM for Oc1c(Br)cc(Br)cc1CN1CCN(Cc2ccccc2)CC1 ?
129

What value of activity at 1 µM has been reported for the following compound? CCn1cc(C(=O)O)c(=O)c2cnc(N3CCN(/C(S)=N/c4ccccc4)CC3)nc21
25

Quick one: activity at 1 µM of CC1=C(CC(=O)c2ccc(Cl)cc2)C(=O)c2ccccc2C1=O ?
78

Request the reported activity at 1 µM associated with COc1ccc(S(=O)(=O)N2CCC3(CC2)OCCN3S(=O)(=O)c2c(C)cc(C)cc2C)cc1
88

Item CCOC(=O)CCCCC(=O)c1[nH]c(=O)[nH]c1Cn1ccnc1 has what recorded activity at 1 µM?
140

Give its activity at 1 µM value. Item: CCOC(=O)c1nnn(-c2nonc2N)c1-c1ccc(C)cc1
122

activity at 1 µM lookup needed for COc1cccc(OCCn2cc(C(=O)c3ccco3)c3ccccc32)c1 , thanks.
134

Param item = COc1ccc(NC(=O)CN(C)C(=O)c2oc3c(ccc4ccccc43)c2C)cc1 ; retrieve measured activity at 1 µM.
160

Item CCCN(CCC)CCCN=C(S)Nc1ccc2nc(N3CCCC3)cc(C)c2c1 has what recorded activity at 1 µM?
141

Given the compound COc1cccc(NC(=O)CN(C)C(=O)c2ccc(-c3ccc(Cl)cc3)o2)c1 , what is its reported activity at 1 µM?
146

What does the data say about its activity at 1 µM? Entry: CCOC(=O)c1c(NC(=O)c2ccccc2)sc2c(O)c(CN(CC)CC)ccc12
104
